In what follows, each item is paired with its IC50 for His-Brd4(44-477) (Homo sapiens (Human), UniProt O60885).
One number for each entry, in nM.

Consider the following illustrative entries.
For the compound Cn1cc2c(n1)C(=O)N(c1cc(Cl)c(=O)n(C)c1)C2c1ccc(Cl)cc1 (centres unmarked) [Example 10] , what IC50 is on record?
150

For the compound COc1ncc(-n2nc(C)c3c2C(=O)N(c2cc(C)c(=O)n(C)c2)[C@H]3c2ccc(Cl)cc2)c(OC)n1 [Example 99] , what IC50 is on record?
7800

Entry CCOc1c2c(nn1C)C(=O)N(c1cc(C)c(=O)n(C)c1)C2c1ccc(Cl)cc1 (centres unmarked) [Example 76] has what IC50?
120

Fill in IC50 for each of the 2 compounds listed.
1. Cc1nn(-c2ccnn2C)c2c1[C@H](c1ccc(Cl)cc1)N(c1cc(C)c3nnc(C)n3c1)C2=O [Example 124]
2. Cc1nn(-c2ccnn2C)c2c1C(c1ccc(Cl)cc1)N(c1cc(C)c3nnc(C)n3c1)C2=O (centres unmarked) [Example 90]

[25000, 15]
